- Tested on: Enterococcus faecium
- Procedure summary: Antibacterial activity against vancomycin resistant Enterococcus faecium VanA clinical isolate by broth microdilution method
- Format: functional
As shown below, each of these compounds has a reported MIC90 value.
Answer in µg/mL, number only, no unit symbol.

Sample records with MIC90:
# Entry smiles, MIC90 [µg/mL]
measured = [
    ("CCCCCCCCCC(=O)N[C@@H](Cc1c[nH]c2ccccc12)C(=O)N[C@H](CC(N)=O)C(=O)N[C@@H](CC(=O)O)C(=O)N[C@@H]1C(=O)NCC(=O)N[C@@H](CCCN)C(=O)N[C@@H](CC(=O)O)C(=O)N[C@H](C)C(=O)N[C@@H](CC(=O)O)C(=O)NCC(=O)N[C@H](CO)C(=O)N[C@@H]([C@H](C)CC(=O)O)C(=O)N[C@@H](CC(=O)c2ccccc2N)C(=O)O[C@@H]1C", 4),
    ("CCCCCCCCCCNCCN[C@@]1(C)C[C@H](O[C@H]2[C@H](Oc3c4cc5cc3Oc3ccc(cc3Cl)[C@@H](O)[C@@H](NC(=O)[C@@H](CC(C)C)NC)C(=O)N[C@@H](CC(N)=O)C(=O)N[C@H]5C(=O)N[C@H]3C(=O)N[C@H](C(=O)N[C@H](C(=O)O)c5cc(O)c(CNCP(=O)(O)O)c(O)c5-c5cc3ccc5O)[C@H](O)c3ccc(c(Cl)c3)O4)O[C@H](CO)[C@@H](O)[C@@H]2O)O[C@@H](C)[C@H]1O", 16),
    ("CC1(C)S[C@@H]2[C@H](NC(=O)[C@H](N)c3ccccc3)C(=O)N2[C@H]1C(=O)O", 128),
]

Lookup: Reported MIC90 for Enterococcus faecium, given CC(=O)NC[C@H]1CN(c2ccc(N3CCOCC3)c(F)c2)C(=O)O1 ?
Found: 2
